Sourced from PubChem BioAssay (NCI)

Test system: CAKI-1 renal
test-summary: NCI tumour cell line growth inhibition, 48 h
Where a SMILES comes first, the peptide text is derived from it. The star is where a group is joined. Boc = CC(C)(C)OC(=O)*; OSu = O=C1CCC(=O)N1O*
Give TGI for every item shown.

Recorded result, "COc1ccc(OC)c(/C(C)=N/NC(N)=S)c1" , TGI: > 100 µM

Lab note: "Cc1c(Cl)c2ccccc2n1S(=O)(=O)c1ccccc1" gave TGI of > 100 µM

Per the records, this compound ( Cc1ccc(N2Cc3c(ccc4ccccc34)OP2(=O)Oc2ccc(Cl)c(C)c2)cc1 (stereo unspecified) ) has TGI equal to > 100 µM

In plain terms, "CC1(C)N=C(C(N)=O)c2ncn(N)c2N1" has a documented TGI of > 100 µM

Value of measured TGI for the entry "Cc1cc2c(ccc3c(C)cc(=O)oc32)o1" : > 100 µM

Just so you know, measured TGI for "Fc1ccc2[nH]cc(-c3nonc3-c3c[nH]c4ccc(Br)cc34)c2c1" came out at 13.8 µM

Sample "CCOC(=O)c1ccc(Nc2c3c(nc4ccccc24)CCCC3)cc1" ; TGI observed: > 100 µM

So, CC(NC(=O)C(NC(=O)OC(C)(C)C)C(C)C)C(=O)NCC(=O)ON1C(=O)CCC1=O (stereo not drawn) (Boc-Val-Ala-Gly-OSu; configuration not given here) ? Its TGI was > 100 µM

GET /value?item= "O=C(O)c1cc2ccccc2c(N=Nc2ccc(S(=O)(=O)Nc3nccs3)cc2)c1O" &field=TGI returns > 100 µM

Kindly note the recorded TGI for CCOC(=O)C1=CNC(C(=O)OCC)C1c1cccn1-c1ccc(Cl)cc1[N+](=O)[O-] (stereo unspecified) , which is 58.6 µM

Lookup result for "O=c1nc(/C=C/c2ccccc2Cl)cc2n1CCN2CCO" ; measured TGI: > 100 µM

Just so you know, measured TGI for "O=S(=O)(Nc1ccccc1Cl)c1ccc(-c2cnc(C3CC3)o2)cc1" came out at 82 µM

# TGI of O=c1[nH]c(=O)n(C2OC(COP(=O)(O)OP(=O)(O)OC3OC(CO)C(O)C(O)C3O)C(O)C2O)cc1F (stereo unspecified) = 18.3 µM

Input "COC(=O)CCC(=O)NC1=C(NCc2ccccc2)C(=O)c2ccccc2C1=O" . Output TGI: 72.8 µM

TGI in this record for "Cc1nn(-c2nc3ccccc3[nH]2)c(N)c1-c1ccc(Cl)cc1" : > 100 µM

What the record says about "CC[C@H](O)[C@H](C)C=C1SCCCS1" : TGI is > 100 µM

The compound identified as CN1CCCC2(CCCc3ccccc32)C1 (stereo unspecified) registered its TGI at > 100 µM

The compound listed as CC(C)CC(NC(=O)c1cccc(O)c1O)C(=O)NCc1cc(CNC(=O)C(CC(C)C)NC(=O)c2cccc(O)c2O)cc(CNC(=O)C(CC(C)C)NC(=O)c2cccc(O)c2O)c1 (stereo unspecified) has a reported TGI of > 100 µM

Documented TGI of "C=C1C(=O)O[C@H]2C[C@@H]1CC/C(C)=C/CC/C(C)=C/CC[C@H]2C" : 33.6 µM

For C=C(C)C(=O)O[C@H]1C[C@@]23O[C@@H]2CCC(=C[C@H]2OC(=O)C(=C)[C@H]12)COC3O (stereo partly specified) the compound record lists TGI as > 100 µM

compound O=C(CP(=O)(O)O)NC(CC(=O)OCc1ccccc1)C(=O)OCc1ccccc1 (stereo unspecified) , TGI observed: > 100 µM

---

System: TK-10 renal
test-summary: NCI tumour cell line growth inhibition, 48 h
Consider the following molecules; for each one, report its TGI.
Field: numeric (µM). Do not append units.

# TGI (molecule: "C=C1C(=O)O[C@@H]2C[C@@H](C)[C@@H]3C=CC(=O)[C@@]3(C)[C@@H](OC(=O)CC(=O)O[C@H]3[C@@H]4C(=C)C(=O)O[C@@H]4C[C@@H](C)[C@@H]4C=CC(=O)[C@]43C)[C@H]12" ) is 0.47

The recorded TGI for "COc1ccc(-c2cn[nH]c2-c2cc(OC)c3c(c2)OCO3)cc1" is 63.3

Reported TGI for "COc1cc(NC(N)=NCCC(C)(C)Oc2ccc(C(F)(F)F)cc2)ncc1C#N" was 2.91

---

For each of the molecules below, state its TGI.
Tested on: LOX IMVI melanoma
test-summary: NCI tumour cell line growth inhibition, 48 h

The reported TGI of the molecule "Cc1cc2c(ccc3c(C)cc(=O)oc32)o1" was > 100 µM

Documented TGI of "COc1ccc2c(C)cc(N/N=C/c3ccc(OC)c4ccccc34)nc2c1" : 12.3 µM

Looking up "COc1ccc(-n2cnnc2-c2nsc3ccccc23)cc1" , I found its TGI recorded as > 100 µM

// TGI lookup, molecule = "CN(C)c1ccc(C(=C(c2ccc(N(C)C)cc2)c2ccc(N(C)C)cc2)c2ccc(N(C)C)cc2)cc1" , result: 31.2 µM

// TGI lookup, molecule = "CC(=O)[O][Ga]([Cl])[O]C(C)=O" , result: > 100 µM

Lab note: measured TGI of "COc1cc(NC(N)=NCCC(C)(C)Oc2ccc(C(F)(F)F)cc2)ncc1C#N" was 3.01 µM

Item: "COc1ccc(OC)c(/C(C)=N/NC(N)=S)c1" | TGI: > 100 µM

Measured TGI of "COc1ccc2c(c1)C(=O)c1c-2n(CCCN=[N+]=[N-])c(=O)c2cc(OC)c(OC)cc12" : > 100 µM

The molecule listed as CCOC(=O)C1N(S(=O)(=O)c2ccc(C)cc2)CCC12c1ccccc1N(C(C)=O)C2c1ccc(OC)c(OC)c1 (stereo not given) shows TGI equal to > 100 µM

# TGI of CCCCc1ccc(Nc2nc3c(ncn3C3CC(O)C(CN=[N+]=[N-])O3)c(=O)[nH]2)cc1 (stereo not given) = > 100 µM

---

Tested on: HT29 colon
test-summary: NCI tumour cell line growth inhibition, 48 h
measurement-kind: TGI

Value of TGI reported for the compound "COC(=O)c1c2c(c[n+]([O-])c1C)C(=O)C=CC2=O" is 56.3 µM

Entry under test: "CCc1cccc(C)c1NC(=O)c1sc2nc3c(cc2c1N)CCCCC3" . Its TGI was 24.7 µM

Value of measured TGI for the entry "Fc1ccc2[nH]cc(-c3nonc3-c3c[nH]c4ccc(Br)cc34)c2c1" : 4.03 µM

The compound listed as "CCC[CH2][Sn]([CH2]CCC)([CH2]CCC)[O]c1ccc(Cl)cc1Cl" has a reported TGI of 0.293 µM

TGI reading for O=c1[nH]c(=O)n(C2OC(COP(=O)(O)OP(=O)(O)OC3OC(CO)C(O)C(O)C3O)C(O)C2O)cc1F (stereo not given) : > 100 µM

---

Test system: MALME-3M melanoma
test-summary: NCI tumour cell line growth inhibition, 48 h
measurement-kind: TGI (µM)
Give the number; µM is assumed, so skip it.

# compound "CN[C@H]1C=C[C@@H]2/C=C(C)/C=C/[C@@H](C)[C@H]([C@H](C)[C@H](O)[C@@H](C)NC(C)=O)OC(=O)/C=C/C=C(C)\C=C\[C@]2(C)C1" ; its TGI = 21.7

The reported TGI of the compound "COc1cc(OC)cc(N(CCNC(C)C)c2ccc3ncc(-c4cnn(C)c4)nc3c2)c1" was 21.5

Item: "COC(=O)CCc1c[nH]c2ccc(N(CCCl)CCCl)cc12" | TGI: 30.1

Short answer for "CCOC(=O)c1sc(-c2ccc(OS(=O)(=O)c3ccc(Br)s3)c(C=O)c2)nc1C" : TGI was 18.1

For CCCN(CCCC(NC(C)=O)C(=O)NCc1ccccc1)C(=O)N(CCCl)N=O (centres undefined) the compound record lists TGI as 39.7

---

Tested on: SW-620 colon
test-summary: NCI tumour cell line growth inhibition, 48 h
Please provide measured TGI for the entries that follow.

Kindly note the recorded TGI for "O=C(/C=C/c1ccc(O)c(O)c1)OCCCc1ccccc1" , which is 32 µM

response.value for "COc1ccc2c(C)cc(N/N=C/c3ccc(OC)c4ccccc34)nc2c1" (field: TGI) = 22.2 µM

response.value for Nc1nc(SCc2ccc([N+](=O)[O-])cc2)nc2c1ncn2C1OC(COP(=O)(O)O)C(O)C1O (centres undefined) (field: TGI) = > 100 µM

response.value for "O=C(Nc1cccc(-n2ccc3c(NC(=O)c4ccccc4)nccc32)c1)Nc1cc(C(F)(F)F)cc(C(F)(F)F)c1" (field: TGI) = > 50 µM

Looking up "C1CCC2(CC1)O[C@@H]1[C@@H](O2)[C@@H](O[C@H]2O[C@@H]3COC4(CCCCC4)O[C@H]3[C@@H]3OC4(CCCCC4)O[C@@H]23)O[C@@H]2COC3(CCCCC3)O[C@@H]12" , I found its TGI recorded as > 100 µM

Record O=C1CCC2(CC1CC(Sc1ccccc1)Sc1ccccc1)OCCO2 (centres undefined) . Reported TGI: > 100 µM

Please fill in: TGI reported for CC(=O)OCC1OC(n2c(-c3ccc(Cl)cc3)ccc(C#N)c2=S)C(OC(C)=O)C(OC(C)=O)C1OC(C)=O (centres undefined) = > 100 µM

Per the record, COc1cc2c(cc1OC)C(C(CO)CO)N(CC(O)CCl)CC2 (centres undefined) has TGI of > 100 µM

Record "CN(C)CCCNC(=O)c1cc(NC(=O)c2cc(NC(=O)CCc3c[nH]c4ccccc34)cn2C)cn1C" , field TGI: > 100 µM
